B1: SLC6A17 (parent)
chain: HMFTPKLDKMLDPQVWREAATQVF

- Variants of: B1
- experimental_details: protein stability index of a GFP-peptide fusion (GPS, HEK-293T) (PSI 1-6); higher = more stable;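 also: lentivirally expressed fusions sorted by FACS into six bins by GFP to DsRed ratio, PSI derived from sequencing read proportions per bin multiplied by bin number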
- applied_conditions: c terminus: a fixed tail appended
# protein stability index >= 2 gives True, anything below gives False

In plain terms: is recorded protein stability index at least 2 for `Q22Y` ?
False

Next:
In plain terms: is recorded protein stability index at least 2 for `P13Q` ?
True

In plain terms: is recorded protein stability index at least 2 for `W16P` ?
True

In plain terms: is recorded protein stability index at least 2 for `K9V` ?
False

In plain terms: is recorded protein stability index at least 2 for `Q14S` ?
False

In plain terms: is recorded protein stability index at least 2 for `Q14I` ?
False

In plain terms: is recorded protein stability index at least 2 for `W16K` ?
True

In plain terms: is recorded protein stability index at least 2 for `P13Y` ?
False
